- TESTED ON: CaM (Bos taurus, UniProt P62157)
- Construct: made in house; host or cells: E. coli BL21 (DE3)
- METHOD DESCRIPTION: Pull-down assay with immobilized protein and LSM libraries
- Type: binding, bovine
- CONDITION DETAILS: H14 library; 1:2 stoichiometry assumed; read-out: Surface mapping KD (apparent)
MEASURE: Kd

CSCC[C@@H](CC(=O)N[C@H]1CCCC[C@@H]1C(=O)N[C@H]1CCCC[C@@H]1C(=O)N[C@H](CC(=O)N[C@H]1CCCC[C@@H]1C(N)=O)Cc1c[nH]c2ccccc12)NC(=O)[C@H]1CCCC[C@@H]1N [H14 MW] = 2 µM

For this molecule ( NC(=O)C[C@@H](CC(=O)N[C@H]1CCCC[C@@H]1C(=O)N[C@H]1CCCC[C@@H]1C(=O)N[C@H](CC(=O)N[C@H]1CCCC[C@@H]1C(N)=O)Cc1ccc(O)cc1)NC(=O)[C@H]1CCCC[C@@H]1N [H14 NY] ), measured Kd is 109 µM

###

- TESTED ON: RecQ-WH (Escherichia coli, UniProt P15043)
- Construct: coding for residues 408– 523 of E. coli RecQ; made in house; host or cells: E. coli BL21(DE3)
- Sequence (P15043 408-523): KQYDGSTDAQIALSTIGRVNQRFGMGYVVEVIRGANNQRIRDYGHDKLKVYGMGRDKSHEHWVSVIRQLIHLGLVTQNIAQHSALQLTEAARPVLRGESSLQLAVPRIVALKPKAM
- METHOD DESCRIPTION: Pull-down assay with immobilized protein and LSM libraries
- Set-up: species or system E. coli
- CONDITION DETAILS: H14 library; 1:1 binding assumed; read-out: Surface mapping KD (apparent)
MEASURE: Kd (µM)
// note: answer is a bare numeric in µM

Worked examples follow.
NC(=O)[C@H]1CCCC[C@@H]1NC(=O)C[C@H](CO)NC(=O)[C@H]1CCCC[C@@H]1NC(=O)[C@H]1CCCC[C@@H]1NC(=O)C[C@H](Cc1ccccc1)NC(=O)[C@H]1CCCC[C@@H]1N = 303
CC[C@H](C)[C@@H](CC(=O)N[C@H]1CCCC[C@@H]1C(N)=O)NC(=O)[C@H]1CCCC[C@@H]1NC(=O)[C@H]1CCCC[C@@H]1NC(=O)C[C@H](Cc1c[nH]c2ccccc12)NC(=O)[C@H]1CCCC[C@@H]1N = 68
CC(C)[C@@H](CC(=O)N[C@H]1CCCC[C@@H]1C(N)=O)NC(=O)[C@H]1CCCC[C@@H]1NC(=O)[C@H]1CCCC[C@@H]1NC(=O)C[C@H](Cc1ccccc1)NC(=O)[C@H]1CCCC[C@@H]1N = 129
CC(C)C[C@@H](CC(=O)N[C@H]1CCCC[C@@H]1C(N)=O)NC(=O)[C@H]1CCCC[C@@H]1NC(=O)[C@H]1CCCC[C@@H]1NC(=O)C[C@H](Cc1c[nH]c2ccccc12)NC(=O)[C@H]1CCCC[C@@H]1N = 68

We next turn to a different molecule, shown below.
For "NC(=O)[C@H]1CCCC[C@@H]1NC(=O)C[C@H](Cc1ccccc1)NC(=O)[C@H]1CCCC[C@@H]1NC(=O)[C@H]1CCCC[C@@H]1NC(=O)C[C@H](Cc1c[nH]c2ccccc12)NC(=O)[C@H]1CCCC[C@@H]1N" on RecQ-WH (Escherichia coli, UniProt P15043), measured Kd was 62

###

- TESTED ON: S100A4 (Homo sapiens, UniProt P26447)
- Construct: made in house; host or cells: Escherichia coli BL21(DE3)
- Sequence (P26447 whole entry): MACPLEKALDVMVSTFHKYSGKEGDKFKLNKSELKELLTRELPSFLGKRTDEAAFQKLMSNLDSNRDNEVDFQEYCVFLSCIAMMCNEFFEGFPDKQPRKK
- METHOD DESCRIPTION: Pull-down assay with immobilized protein and LSM libraries
- Type: binding
- CONDITION DETAILS: H12 library; 1:1 binding assumed; read-out: Surface mapping KD (apparent)
Listed next: entries and their corresponding Kd.
Number plus unit, in that order.

CC[C@H](C)[C@@H](CC(=O)N[C@H]1CCC[C@@H]1C(=O)N[C@H]1CCC[C@@H]1C(N)=O)NC(=O)[C@H]1CCC[C@@H]1NC(=O)[C@H]1CCC[C@@H]1NC(=O)C[C@H](CCCNC(=N)N)NC(=O)[C@H]1CCC[C@@H]1NC(=O)[C@H]1CCC[C@@H]1N = 245 µM

The record that follows has no Kd shown yet.
For reference, reported Kd for "CSCC[C@@H](CC(=O)N[C@H]1CCC[C@@H]1C(=O)N[C@H]1CCC[C@@H]1C(=O)N[C@H](CC(=O)N[C@H]1CCC[C@@H]1C(=O)N[C@H]1CCC[C@@H]1C(N)=O)CC(C)C)NC(=O)[C@H]1CCC[C@@H]1NC(=O)[C@H]1CCC[C@@H]1N" stands at 245 µM
